# System: E. multilocularis metacestode vesicles
# ASSAY_PROTOCOL: Phosphoglucose isomerase (PGI) release assay (damage-marker release) on metacestode vesicles
# Type: cell-based, Echinococcus multilocularis
# ASSAY_CONDITIONS: overview screen, 10 μM, singlets, 12 days, relative to 0.1 % Triton X-100, DMSO subtracted
I'd appreciate it if you marked entries 1 when PGI d12 (relative PGI release) is lower than -10% and -1 when it is not.

// known answers, use as guide
[
  {
    "COMPOUND": "NC[C@H]1OB(O)c2c(OCCCO)cccc21",
    "DISCRETE_LABEL": -1
  },
  {
    "COMPOUND": "Cc1cc(C)n(O)c(=O)c1",
    "DISCRETE_LABEL": 1
  },
  {
    "COMPOUND": "C[C@@H](c1nc(-c2ccc(C#N)cc2)cs1)[C@](O)(Cn1cncn1)c1ccc(F)cc1F",
    "DISCRETE_LABEL": 1
  },
  {
    "COMPOUND": "CN(C)[C@@H]1C(=O)C(C(N)=O)=C(O)[C@@]2(O)C(=O)C3=C(O)c4c(O)c(NC(=O)CN5CCCC5)cc(F)c4C[C@H]3C[C@@H]12.Cl.Cl",
    "DISCRETE_LABEL": 1
  },
  {
    "COMPOUND": "NC[C@H]1O[C@H](O[C@H]2[C@H](O)[C@@H](O[C@H]3O[C@H](CO)[C@@H](O)[C@H](N)[C@H]3O)[C@H](N)C[C@@H]2N)[C@H](N)C[C@@H]1O",
    "DISCRETE_LABEL": 1
  }
]

Request: Check if PGI d12 (relative PGI release) falls below -10% for CCCCC(CC)CNC(=N)NC(=N)NCCCCCCNC(=N)NC(=N)NCC(CC)CCCC (stereo not shown) [alexidine, reference compound] .
Response: -1

Request: Check if PGI d12 (relative PGI release) falls below -10% for "NC(=O)c1nccn([C@@H]2O[C@H](CO)[C@@H](O)[C@H]2O)c1=O" .
Response: 1
